Quick reference: amyloid nucleation score of the listed items.
test: amyloid nucleation score (Sup35N fusion, yeast selection) (log enrichment); library NNK2; higher = more nucleation; inactive = no reads after selection;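 also: zero at mode of non-aggregating sequences after 7 days selection at 30°C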
Lab note: write the figure by itself, no unit.

Residue Sequence: KSPNHSDRVQWMKYTFWYTL
Quantity Name: amyloid nucleation score
Observed Result: -0.003
--
Residue Sequence: VIHAFIMYSFGTKDV
Quantity Name: amyloid nucleation score
Observed Result: 0.885
--
Residue Sequence: MSKEVVSSGYVIHIRRQRGG
Quantity Name: amyloid nucleation score
Observed Result: 0.82

What does the record list as amyloid nucleation score for `YVDTRLKTSVLFRK` ?
3.93

What does the record list as amyloid nucleation score for `VGLCSPWKHALFD` ?
3.33

What does the record list as amyloid nucleation score for `SRFRGKLCFGWHKYAFGEVF` ?
-0.711

* * *

test: amyloid nucleation score (Sup35N fusion, yeast selection) (log enrichment); library NNK2; higher = more nucleation; inactive = no reads after selection
Quantity Name: amyloid nucleation score
Lab note: write the figure by itself, no unit.

Substance: DMQGRVVRR
Observed Result: -0.855
--
Substance: FCMFSNIYVFPSTIF
Observed Result: 7.58
--
Substance: VHVYVGQKWSGGVLSLACYK
Observed Result: 1.09
--
Substance: VSKRNDLQTSFLYMMHLALQ
Observed Result: -0.536
--
Substance: LSQVSRFLSSTNLT
Observed Result: 0.579

Then this substance:
What does the record list as amyloid nucleation score for `VATAAEWVQAGLE` ?
2.32

* * *

assay: amyloid nucleation score (Sup35N fusion, yeast selection) (log enrichment); library NNK2; higher = more nucleation; inactive = no reads after selection
Quick reference: amyloid nucleation score of the listed items.
Lab note: write the figure by itself, no unit.

Substance: QTGCSITFLKFGRSAVSTVK
amyloid nucleation score: 0.378

What does the record list as amyloid nucleation score for `ICYFLKGAFRR` ?
-0.493

What does the record list as amyloid nucleation score for `INVLFRVSPRISAVRNVCST` ?
-0.271

What does the record list as amyloid nucleation score for `YYSPQSVKEYPRNTYRLIKA` ?
-0.613

What does the record list as amyloid nucleation score for `LVYDKENIGRLDRRRVWRRQ` ?
0.767

What does the record list as amyloid nucleation score for `LYSDGVIDMRRLCKVL` ?
-0.841

What does the record list as amyloid nucleation score for `LQCEIKPMGDTIMW` ?
1.47

What does the record list as amyloid nucleation score for `ASDVSRVGVGRKMIFSFVRL` ?
-0.031

What does the record list as amyloid nucleation score for `WGCSHKLTCVGARHLVLD` ?
2.46

What does the record list as amyloid nucleation score for `EYMYYGFYCHYGSSVLAF` ?
-0.731

What does the record list as amyloid nucleation score for `SYRLYFFMGFDMLYLCMG` ?
-0.177

What does the record list as amyloid nucleation score for `LWMDWS` ?
0.754

What does the record list as amyloid nucleation score for `YALRLLHGSYNSNT` ?
3.31

What does the record list as amyloid nucleation score for `SIGWRPPCLVFDVGWRREGQ` ?
-0.109

What does the record list as amyloid nucleation score for `RRMMRP` ?
2.2

What does the record list as amyloid nucleation score for `IWRFRGRRNRAWKF` ?
-0.333

What does the record list as amyloid nucleation score for `VRCRMFMYVMSDLSFMS` ?
3.6

What does the record list as amyloid nucleation score for `RHVMSR` ?
0.419

What does the record list as amyloid nucleation score for `KCKRLVSKNIRL` ?
-0.342

What does the record list as amyloid nucleation score for `GMGSVCGIIEYAWTA` ?
0.627

What does the record list as amyloid nucleation score for `RQLAQQYAHAFGYIFHSLYL` ?
1.19

What does the record list as amyloid nucleation score for `KFSHQVEILPSGTSIGSCER` ?
-0.111

What does the record list as amyloid nucleation score for `HTDLTSKFFYLNWCGLSLLR` ?
3.39

Origin of values: the supplement of paper PMC12042874
